molecular target: EGFR (Homo sapiens)
Sequence (P00533 25-1210, species assumed): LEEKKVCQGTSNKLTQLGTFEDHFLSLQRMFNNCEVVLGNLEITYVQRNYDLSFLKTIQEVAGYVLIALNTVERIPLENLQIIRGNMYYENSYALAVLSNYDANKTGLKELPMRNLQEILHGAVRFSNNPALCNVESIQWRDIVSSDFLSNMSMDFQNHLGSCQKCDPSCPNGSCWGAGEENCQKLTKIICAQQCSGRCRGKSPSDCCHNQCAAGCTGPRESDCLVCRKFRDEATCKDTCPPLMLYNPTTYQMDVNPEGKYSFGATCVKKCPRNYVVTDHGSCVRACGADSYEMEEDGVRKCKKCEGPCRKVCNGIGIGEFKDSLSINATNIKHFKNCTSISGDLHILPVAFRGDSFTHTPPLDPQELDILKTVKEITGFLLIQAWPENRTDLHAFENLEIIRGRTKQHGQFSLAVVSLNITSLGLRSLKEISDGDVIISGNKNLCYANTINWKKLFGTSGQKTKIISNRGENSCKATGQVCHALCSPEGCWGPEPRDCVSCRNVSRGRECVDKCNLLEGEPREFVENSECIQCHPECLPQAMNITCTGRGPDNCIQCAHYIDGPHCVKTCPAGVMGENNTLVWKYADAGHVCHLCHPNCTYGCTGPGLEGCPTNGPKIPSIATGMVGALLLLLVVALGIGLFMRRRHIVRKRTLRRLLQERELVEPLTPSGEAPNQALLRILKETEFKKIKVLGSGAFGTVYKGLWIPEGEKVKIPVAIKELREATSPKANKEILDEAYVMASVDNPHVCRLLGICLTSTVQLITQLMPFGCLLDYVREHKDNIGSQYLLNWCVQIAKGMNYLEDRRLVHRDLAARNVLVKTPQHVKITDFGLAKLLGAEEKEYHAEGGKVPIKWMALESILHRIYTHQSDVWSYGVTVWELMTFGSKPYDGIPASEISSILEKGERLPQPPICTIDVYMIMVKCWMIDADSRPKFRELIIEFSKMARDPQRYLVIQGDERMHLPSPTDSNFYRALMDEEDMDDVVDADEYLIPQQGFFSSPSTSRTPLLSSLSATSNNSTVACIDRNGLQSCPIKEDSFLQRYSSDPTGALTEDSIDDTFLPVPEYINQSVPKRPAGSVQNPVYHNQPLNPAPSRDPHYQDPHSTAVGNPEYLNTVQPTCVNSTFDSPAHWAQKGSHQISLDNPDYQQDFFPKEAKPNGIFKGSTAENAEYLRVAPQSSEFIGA
PARAMETER MEASURED: IC50

These solved cases illustrate the format of a correct answer.
CHEMICAL SMILES: CN(C)C/C=C/C(=O)Nc1cccc(-n2c(=O)n(-c3ccc(Cl)cc3)c3c(N)ncnc32)c1
MEASURED ON: EGFR (Homo sapiens)
PARAMETER MEASURED: IC50
MEASUREMENT: 1000 to 10000 nM
--
CHEMICAL SMILES: CN(C)C/C=C/C(=O)Nc1cccc(-n2c(=O)n(-c3ccc(Oc4ccccc4)cc3)c3c(N)ncnc32)c1
MEASURED ON: EGFR (Homo sapiens)
PARAMETER MEASURED: IC50
MEASUREMENT: < 100 nM
--
CHEMICAL SMILES: COc1ccc(-n2c(=O)n(-c3ccc(Oc4ccccc4)cc3)c3c(N)ncnc32)cc1N(C)C(=O)/C=C/CN(C)[C@H]1CCOC1
MEASURED ON: EGFR (Homo sapiens)
PARAMETER MEASURED: IC50
MEASUREMENT: 1000 to 10000 nM
--
CHEMICAL SMILES: COCCOc1ccc(-n2c(=O)n(-c3ccc(C)c(OC)c3)c3c(N)ncnc32)cc1N(C)C(=O)/C=C/CN(C)C
MEASURED ON: EGFR (Homo sapiens)
PARAMETER MEASURED: IC50
MEASUREMENT: > 10000 nM
--
CHEMICAL SMILES: COc1ccc(-n2c(=O)n(-c3ccc(Oc4ccccc4)cc3)c3c(N)ncnc32)cc1N(C)C(=O)/C=C/CN(C)C1CC1
MEASURED ON: EGFR (Homo sapiens)
PARAMETER MEASURED: IC50
MEASUREMENT: 1000 to 10000 nM
--
CHEMICAL SMILES: CN(C(=O)/C=C/CN(C)C1CC1)c1cccc(-n2c(=O)n(-c3ccc(Oc4cccc(F)c4)cc3)c3c(N)ncnc32)c1
MEASURED ON: EGFR (Homo sapiens)
PARAMETER MEASURED: IC50
MEASUREMENT: 1000 to 10000 nM
--
CHEMICAL SMILES: CN(C/C=C/C(=O)Nc1cccc(-n2c(=O)n(-c3ccc(Oc4ccccc4)cc3)c3c(N)ncnc32)c1)C1CCC1
MEASURED ON: EGFR (Homo sapiens)
PARAMETER MEASURED: IC50
MEASUREMENT: < 100 nM
--
CHEMICAL SMILES: CN(C)C/C=C/C(=O)N(C)[C@H]1CC[C@@H](n2c(=O)n(-c3ccc(Oc4ccccc4)cc3)c3c(N)ncnc32)CC1
MEASURED ON: EGFR (Homo sapiens)
PARAMETER MEASURED: IC50
MEASUREMENT: < 100 nM

Returns the measured IC50 for the input molecule. Input: COc1cc(-n2c(=O)n(-c3ccc(N(C)C(=O)/C=C/CN(C)C)cc3)c3ncnc(N)c32)ccc1C
1000 to 10000 nM

Returns the measured IC50 for the input molecule. Input: C=CC(=O)Nc1cccc(-n2c(=O)n(-c3ccc(Oc4ccccc4)cc3)c3c(N)ncnc32)c1
< 100 nM

Returns the measured IC50 for the input molecule. Input: COc1cc(-n2c(=O)n(-c3cccc(NC(=O)/C=C/CN(C)C)c3)c3ncnc(N)c32)ccc1C
1000 to 10000 nM

Returns the measured IC50 for the input molecule. Input: CN(C(=O)/C=C/CN(C)[C@@H]1CCOC1)c1cccc(-n2c(=O)n(-c3ccc(Oc4ccccc4)cc3)c3c(N)ncnc32)c1
1000 to 10000 nM

Returns the measured IC50 for the input molecule. Input: CN(C/C=C/C(=O)N1CCOc2ccc(-n3c(=O)n(-c4ccc(Oc5ccccc5)cc4)c4c(N)ncnc43)cc21)C1CC1
100 to 1000 nM

Returns the measured IC50 for the input molecule. Input: CN(C(=O)/C=C/CN(C)C1CC1)c1cccc(-n2c(=O)n(-c3ccc(OCc4cccc(F)c4)cc3)c3c(N)ncnc32)c1
1000 to 10000 nM
